Notes on IC50 obtained with GSK3α (Homo sapiens, UniProt P49840).
Sequence (P49840 whole entry, species assumed): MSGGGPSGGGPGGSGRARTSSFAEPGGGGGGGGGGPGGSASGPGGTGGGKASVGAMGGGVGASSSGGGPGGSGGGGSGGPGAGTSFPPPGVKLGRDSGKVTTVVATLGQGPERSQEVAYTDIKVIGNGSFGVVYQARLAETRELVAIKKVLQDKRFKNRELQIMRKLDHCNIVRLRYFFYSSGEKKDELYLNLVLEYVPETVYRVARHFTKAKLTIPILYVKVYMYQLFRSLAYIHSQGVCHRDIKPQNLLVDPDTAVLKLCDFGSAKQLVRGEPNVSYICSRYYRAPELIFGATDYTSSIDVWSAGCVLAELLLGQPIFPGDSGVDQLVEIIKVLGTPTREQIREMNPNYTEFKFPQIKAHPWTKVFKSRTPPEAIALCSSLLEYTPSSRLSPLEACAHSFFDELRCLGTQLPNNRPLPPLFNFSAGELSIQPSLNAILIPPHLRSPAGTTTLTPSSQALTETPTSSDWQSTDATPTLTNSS
MEASURED_ATTRIBUTE: IC50 (nM)

compound="COc1ccc(Nc2nccc(C(=O)Nc3cnccc3-c3ccccc3)n2)cc1Cl [Example 18]" assay_target="GSK3α (Homo sapiens, UniProt P49840)" measured_attribute=IC50 observed=0.32
compound="O=C(Nc1cnccc1-c1ccccc1)c1ccnc(Nc2ccc(Cl)cc2)n1 [Example 10]" assay_target="GSK3α (Homo sapiens, UniProt P49840)" measured_attribute=IC50 observed=0.28
compound="O=C(Nc1cnccc1-c1ccc(F)cc1)c1ccnc(Nc2ccccc2)n1 [Example 43]" assay_target="GSK3α (Homo sapiens, UniProt P49840)" measured_attribute=IC50 observed=0.19
compound="CC(Nc1nccc(C(=O)Nc2cnccc2OCC(F)(F)F)n1)C(C)(C)C (centres unmarked) [Example 126]" assay_target="GSK3α (Homo sapiens, UniProt P49840)" measured_attribute=IC50 observed=0.41
compound="CC(C)(C)C1CCC(Nc2nccc(C(=O)Nc3cnccc3OCC(F)(F)F)n2)CC1 (centres unmarked) [Example 121]" assay_target="GSK3α (Homo sapiens, UniProt P49840)" measured_attribute=IC50 observed=0.35
compound="CN1C(C)(C)CC(Nc2nccc(C(=O)Nc3cnccc3OCC(F)(F)F)n2)CC1(C)C [Example 145]" assay_target="GSK3α (Homo sapiens, UniProt P49840)" measured_attribute=IC50 observed=460
compound="O=C(Nc1cnccc1OCC(F)(F)F)c1ccnc(Nc2ccc(OC(F)F)nc2)n1 [Example 63]" assay_target="GSK3α (Homo sapiens, UniProt P49840)" measured_attribute=IC50 observed=0.13
compound="O=C(Nc1cnccc1OCC(F)(F)F)c1ccnc(Nc2ccc3cnccc3c2)n1 [Example 106]" assay_target="GSK3α (Homo sapiens, UniProt P49840)" measured_attribute=IC50 observed=0.09

----------
# ASSAY_TARGET: GSK3α (Homo sapiens)
condition met if IC50 is below 2 nM. condition not met if not; exact matches included in condition not met.

molecule_smiles=CNc1nccc(C(=O)Nc2cnccc2-c2ccc(F)cc2F)n1 assay_target="GSK3α (Homo sapiens)" class_assignment="condition met"
molecule_smiles=O=C(Nc1cncc(-c2ccccc2F)c1)c1ccnc(NCC2CC2)n1 assay_target="GSK3α (Homo sapiens)" class_assignment="condition not met"
molecule_smiles=Cn1ccc(Nc2nccc(C(=O)Nc3cnccc3-c3ccccc3)n2)n1 assay_target="GSK3α (Homo sapiens)" class_assignment="condition not met"
molecule_smiles=O=C(Nc1cnccc1OCC(F)(F)F)c1ccnc(Nc2ccccc2)n1 assay_target="GSK3α (Homo sapiens)" class_assignment="condition met"
molecule_smiles=O=C(Nc1cnccc1-c1ccccc1)c1ccnc(Nc2ccc(C(F)(F)F)nc2)n1 assay_target="GSK3α (Homo sapiens)" class_assignment="condition met"
molecule_smiles=N#Cc1ccc(Nc2nccc(C(=O)Nc3cncnc3OCC(F)(F)F)n2)cc1 assay_target="GSK3α (Homo sapiens)" class_assignment="condition met"
molecule_smiles=COc1ccc(Nc2nccc(C(=O)Nc3cncnc3OCC(F)(F)F)n2)cc1 assay_target="GSK3α (Homo sapiens)" class_assignment="condition met"
molecule_smiles=O=C(Nc1cncnc1N1CCOCC1)c1ccnc(NCC2CCOCC2)n1 assay_target="GSK3α (Homo sapiens)" class_assignment="condition not met"
molecule_smiles=O=C(Nc1cnc(F)cc1OCC(F)(F)F)c1ccnc(Nc2ccc(C(F)(F)F)cc2)n1 assay_target="GSK3α (Homo sapiens)" class_assignment="condition met"

Ref: patent US10752609B2
